Target: T1, hDMX (In-house, 40 kD) (human, UniProt O15151 1-120)
T1 chain: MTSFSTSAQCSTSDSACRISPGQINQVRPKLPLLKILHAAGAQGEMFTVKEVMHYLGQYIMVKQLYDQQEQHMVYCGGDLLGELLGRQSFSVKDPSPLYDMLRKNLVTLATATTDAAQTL
Experiment: FP competition
outcome-measure: IC50 (nM)
Form entry: value (nM) — number only.

Query: Returns the measured IC50 for the input binder. Input: ETFAAYWAQLAS (not fully specified) [SP-508]
Reply: 88.8
